# Test details: Acute toxicity (DL50) in the rat
# Condition summary: in vivo, ip
Please go through the items and note down their LD50.
Your answer should be a plain number; it is taken to be in mg/kg.

Lookup: Form field: reported LD50 of "CCCN1CC=C(c2cccc(C(F)(F)F)c2)CC1"
Found: 124

Lookup: Returns the measured LD50 for the input molecule. Input: CCNC(C)Cc1cccc(C(F)(F)F)c1 (centres unmarked) [fenfluramine, reference compound]
Found: 85.6

Lookup: Which LD50 value is on record for "CN1CC=C(c2cccc(C(F)(F)F)c2)CC1" ?
Found: 186

Lookup: Reported LD50 for "FC(F)(F)c1cccc(C2=CCN(Cc3ccccc3)CC2)c1" : what is it?
Found: 220

Lookup: Recorded LD50 of "FC(F)(F)c1cccc(C2=CCNCC2)c1" , please.
Found: 94.6
